# experiment-notes: chemical genetic growth profiling, strain panel (AID 1159580);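 also: tested at 20 µM; growth read once vehicle control cultures reached saturation at 30 °C; lower values mean less growth of the strain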
# experimental-conditions: S. cerevisiae deletion strains, growth OD, locus YDR001C, strain nth1
Out of some 5,500 compounds screened, about 2,000 (36%) were called active. Another 18% or so got no clear call; they are omitted. Rule as the data show it: active = normalized growth mostly below about 0.91 (no sharp cut-off); inconclusive = no clear call, values can overlap the other calls; inactive = mostly above about 0.92. Some of the results follow.
Would you mind answering with one of these outcomes? active, inactive

# compound, classification
measured = [
    ("CN(C)c1nc(N(C)C)nc(N(C)C)n1", "inactive"),
    ("O=C(CCCN1CC=C(n2c(=O)[nH]c3ccccc32)CC1)c1ccc(F)cc1", "inactive"),
    ("Cc1c(N(C)CS(=O)(=O)O)c(=O)n(-c2ccccc2)n1C", "inactive"),
]

# lookup: test call for O=c1c(-c2ccc3c(c2)OCO3)coc2cc(O)ccc12 inactive

Likewise for CC(=O)O[C@@H]1CC2C(C)(C)[C@H](O)C[C@H](O)[C@]2(C)C2CC[C@@]3(C)C(=CC(=O)O[C@H]3c3ccoc3)[C@@]21C (stereo not given in full) ? inactive

Likewise for COc1cc(OC)c2c(c1Cl)OC1(C2=O)C(O)=CC(=O)CC1C (stereo not given) ? inactive

Likewise for Nc1ncnc2nc[nH]c12 ? inactive

Likewise for Nc1ncnc2c1ncn2[C@@H]1O[C@H](CO)[C@@H](O)[C@@H]1O ? inactive

Likewise for CC(=O)OCC(=O)[C@@]1(O)CCC2C3CCC4=CC(=O)CC[C@]4(C)[C@@]3(F)[C@@H](O)C[C@@]21C (stereo not given in full) ? inactive
